The reported numbers originate from patent US20110182850A1.

Assay Name: in vivo
Set-up: species or system Sprague Dawley rats
Details: Sprague Dawley, rat, po, 10 mg/kg
Measured Property: Cmax (nM)

C=C[C@@H]1C[C@]1(NC(=O)[C@@H]1C[C@@]2(CN1C(=O)[C@@H](NC(=O)[C@@H](NC(=O)[C@@H]1CCCCN1C(C)C)C1CCCCC1)C(C)(C)C)C(C)(C)C21CCC1)C(=O)NS(=O)(=O)C1(C)CC1 [Compound 63]; 320
CC[C@@H]1C[C@]1(NC(=O)[C@@H]1C[C@@]2(CN1C(=O)[C@@H](NC(=O)[C@@H](NC(=O)[C@@H]1CCCCN1C(C)C)C1CCCCC1)C(C)(C)C)C(C)(C)C21CCC1)C(=O)NS(=O)(=O)C1(C)CC1 [Compound 70]; 130
CC[C@@H]1C[C@]1(NC(=O)[C@@H]1C[C@@]2(CN1C(=O)[C@@H](NC(=O)[C@@H](NC(=O)[C@@H]1CCCCN1CC)C1CCCCC1)C(C)(C)C)C(C)(C)C21CCC1)C(=O)NS(=O)(=O)C1(C)CC1 [Compound 83]; 578
CC[C@@H]1C[C@]1(NC(=O)[C@@H]1C[C@@]2(CN1C(=O)[C@@H](NC(=O)[C@@H](NC(=O)[C@@H]1CCCN1CC)C1CCCCC1)C(C)(C)C)C(C)(C)C21CCC1)C(=O)NS(=O)(=O)C1(C)CC1 [Compound 81]; 692

----------
Entries and their pIC50
Subject Of Test: HCV NS3-4A serine protease (full-length NS3-4A protein, genotype 1a, strain HCV-1) (Hepatitis C virus genotype 1a)
Construct: using the full-length NS3-4A protein (genotype 1a, strain HCV-1)
Sequence (P26664 1658-1711): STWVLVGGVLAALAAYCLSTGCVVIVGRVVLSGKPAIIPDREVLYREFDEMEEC
Sequence (P26664 1027-1657): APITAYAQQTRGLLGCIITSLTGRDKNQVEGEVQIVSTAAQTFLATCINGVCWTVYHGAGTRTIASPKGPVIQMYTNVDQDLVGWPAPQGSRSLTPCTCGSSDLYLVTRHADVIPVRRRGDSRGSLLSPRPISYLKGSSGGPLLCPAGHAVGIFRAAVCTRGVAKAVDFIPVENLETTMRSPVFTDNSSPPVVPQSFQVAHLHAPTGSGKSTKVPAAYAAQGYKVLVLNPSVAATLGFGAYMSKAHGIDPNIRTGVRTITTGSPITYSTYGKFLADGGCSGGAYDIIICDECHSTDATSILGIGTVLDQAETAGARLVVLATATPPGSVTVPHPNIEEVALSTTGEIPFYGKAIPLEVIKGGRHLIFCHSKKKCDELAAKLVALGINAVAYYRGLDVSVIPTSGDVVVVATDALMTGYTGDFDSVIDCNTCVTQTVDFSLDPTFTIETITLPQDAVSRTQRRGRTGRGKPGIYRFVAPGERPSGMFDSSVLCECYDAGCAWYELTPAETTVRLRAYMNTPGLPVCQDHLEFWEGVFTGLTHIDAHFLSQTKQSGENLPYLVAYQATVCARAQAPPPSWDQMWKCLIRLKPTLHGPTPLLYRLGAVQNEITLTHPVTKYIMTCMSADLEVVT
Assay Name: HCV NS3-4A protease assay
Format: biochemical
Details: Protease IC50
pIC50: −log10 of the molar value.
Measured Property: pIC50

C=C[C@@H]1C[C@]1(NC(=O)[C@@H]1C[C@@]2(CN1C(=O)[C@@H](NC(=O)[C@@H](NC(=O)[C@@H]1CCCCN1C(C)C)C1CCCCC1)C(C)(C)C)C(C)(C)C21CCC1)C(=O)NS(=O)(=O)C(F)(F)F; 8.60
C=C[C@@H]1C[C@]1(NC(=O)[C@@H]1C[C@@]2(CN1C(=O)[C@@H](NC(=O)[C@@H](NC(=O)[C@@H]1CCN1C(C)C)C(C)(C)C)C(C)(C)C)C(C)(C)C21CCC1)C(=O)NS(=O)(=O)C1CC1; 9.10
C=C[C@@H]1C[C@]1(NC(=O)[C@@H]1C[C@@]2(CN1C(=O)[C@@H](NC(=O)[C@@H](NC(=O)c1ncc[nH]1)C(C)(C)C)C(C)(C)C)C(C)(C)C21CCC1)C(=O)NS(=O)(=O)C1CC1; 8.52
C=C[C@@H]1C[C@]1(NC(=O)[C@@H]1C[C@@]2(CN1C(=O)[C@@H](NC(=O)[C@@H](NC(=O)[C@@H]1CCCCN1C(C)C)C1CCCCC1)C(C)(C)C)C(C)(C)C21CCC1)C(=O)NS(=O)(=O)c1ccccc1; 8.82
C=C[C@@H]1C[C@]1(NC(=O)[C@@H]1C[C@@]2(CN1C(=O)[C@@H](NC(=O)C(NC(=O)c1nccc3ccccc13)C1CCCCC1)C(C)(C)C)C(C)(C)C21CCC1)C(=O)NS(=O)(=O)C1CC1 (some centres unmarked); 8.10
C=CCC(C)(NC(=O)[C@@H]1C[C@@]2(CN1C(=O)[C@@H](NC(=O)[C@@H](NC(=O)[C@@H]1CCCCN1C(C)C)C(C)(C)C)C(C)(C)C)C(C)(C)C21CCC1)C(=O)NS(=O)(=O)C1CC1 (some centres unmarked) [Compound 85]; 5.12
C=C[C@@H]1C[C@]1(NC(=O)[C@@H]1C[C@@]2(CN1C(=O)[C@@H](NC(=O)[C@@H](NC(=O)[C@@H]1CCCN(CCF)C1)C(C)(C)C)C(C)(C)C)C(C)(C)C21CCC1)C(=O)NS(=O)(=O)C1CC1; 7.60
C=C[C@H]1C[C@@]1(NC(=O)[C@@H]1C[C@@]2(CN1C(=O)[C@@H](NC(=O)[C@@H](NC(=O)c1ccno1)C1CCCCC1)C(C)(C)C)C(C)(C)C21CCC1)C(=O)NS(=O)(=O)C1CC1; 9.22
C=C[C@@H]1C[C@]1(NC(=O)[C@@H]1C[C@@]2(CN1C(=O)[C@@H](NC(=O)[C@@H](NC(=O)[C@@H]1CCCN1C(C)C)C(C)(C)C)C(C)(C)C)C(C)(C)C21CCC1)C(=O)NS(=O)(=O)C1CC1; 8.70
C=C[C@H]1C[C@@]1(NC(=O)[C@@H]1C[C@@]2(CN1C(=O)[C@@H](NC(=O)[C@@H](NC(=O)[C@@H]1CCCO1)C1CCCCC1)C(C)(C)C)C(C)(C)C21CCC1)C(=O)NS(=O)(=O)C1CC1; 8.60
C=C[C@@H]1C[C@]1(NC(=O)[C@@H]1C[C@@]2(CN1C(=O)[C@@H](NC(=O)[C@@H](NC(=O)c1cnco1)C1CCCCC1)C(C)(C)C)C(C)(C)C21CCC1)C(=O)NS(=O)(=O)C1CC1; 8.60
C=C[C@@H]1C[C@]1(NC(=O)[C@@H]1C[C@@]2(CN1C(=O)[C@@H](NC(=O)[C@@H](NC(=O)c1ccncn1)C1CCCCC1)C(C)(C)C)C(C)(C)C21CCC1)C(=O)NS(=O)(=O)C1CC1; 9.22
C=C[C@@H]1C[C@]1(NC(=O)[C@@H]1C[C@@]2(CN1C(=O)[C@@H](NC(=O)[C@@H](NC(=O)[C@@H]1CCCCN1C(C)C)C(C)(C)C)C(C)(C)C)C(C)(C)C21CCC1)C(=O)NS(=O)(=O)c1cccc2cc[nH]c12; 9.10
C=C[C@@H]1C[C@]1(NC(=O)[C@@H]1C[C@@]2(CN1C(=O)[C@@H](NC(=O)[C@@H](NC(=O)[C@@H]1COCCN1C(C)C)C(C)(C)C)C(C)(C)C)C(C)(C)C21CCC1)C(=O)NS(=O)(=O)C1CC1; 8.40
C=C[C@@H]1C[C@]1(NC(=O)[C@@H]1C[C@@]2(CN1C(=O)[C@@H](NC(=O)[C@H]1NC(=O)[C@@H]3CCCCN3CCCCCCC1(C)C)C(C)(C)C)C(C)(C)C21CCC1)C(=O)NS(=O)(=O)C1CC1; 8.46
C=C[C@@H]1C[C@]1(NC(=O)[C@@H]1C[C@@]2(CN1C(=O)[C@@H](NC(=O)[C@@H](NC(=O)N1CCN(C)CC1)C(C)(C)C)C(C)(C)C)C(C)(C)C21CCC1)C(=O)NS(=O)(=O)C1CC1; 7.60
CC(C)(C)[C@H](NC(=O)[C@@H]1CCCCN1CCF)C(=O)N[C@H](C(=O)N1C[C@]2(C[C@H]1C(=O)NC1(C(=O)NS(=O)(=O)C3CC3)CC=CC1)C(C)(C)C21CCC1)C(C)(C)C; 5.28

----------
Subject Of Test: HCV NS3-4A serine protease (full-length NS3-4A protein, genotype 1a, strain HCV-1) (Hepatitis C virus genotype 1a)
Construct: using the full-length NS3-4A protein (genotype 1a, strain HCV-1)
Assay Name: HCV NS3-4A protease assay
Format: biochemical
Details: Protease IC50
// assign met if IC50 falls strictly below 10 nM, else not met (ties count as not met)

C=C[C@@H]1C[C@]1(NC(=O)[C@@H]1C[C@@]2(CN1C(=O)[C@@H](NC(=O)[C@@H](NC(=O)c1ccncc1)C1CCCCC1)C(C)(C)C)C(C)(C)C21CCC1)C(=O)NS(=O)(=O)C1CC1 [Compound 96]; met
CC(C)N1CCCC[C@H]1C(=O)N[C@H](C(=O)N[C@H](C(=O)N1C[C@]2(C[C@H]1C(=O)NC1(C(=O)NS(=O)(=O)C3CC3)CC=CC1)C(C)(C)C21CCC1)C(C)(C)C)C(C)(C)C [Compound 23]; not met
CC[C@@H]1C[C@]1(NC(=O)[C@@H]1C[C@@]2(CN1C(=O)[C@@H](NC(=O)[C@@H](NC(=O)[C@@H]1CCCN1C(C)C)C1CCCCC1)C(C)(C)C)C(C)(C)C21CCC1)C(=O)NS(=O)(=O)C1(C)CC1 [Compound 82]; met
C=C[C@@H]1C[C@]1(NC(=O)[C@@H]1C[C@@]2(CN1C(=O)[C@@H](NC(=O)[C@@H](NC(C)=O)C1CCCCC1)C(C)(C)C)C(C)(C)C21CCC1)C(=O)NS(=O)(=O)C1CC1 [Compound 99]; met
C=C[C@@H]1C[C@]1(NC(=O)[C@@H]1C[C@@]2(CN1C(=O)[C@@H](NC(=O)[C@@H](NC(=O)C1CN(C(C)C)C1)C(C)(C)C)C(C)(C)C)C(C)(C)C21CCC1)C(=O)NS(=O)(=O)C1CC1 [Compound 139]; not met
C=C[C@@H]1C[C@]1(NC(=O)[C@@H]1C[C@@]2(CN1C(=O)C(NC(=O)[C@@H](NC(=O)OC(C)(C)C)C(C)(C)C)C(C)(C)C)C(C)(C)C21CCC1)C(=O)NS(=O)(=O)c1ccccc1 (stereo partly drawn) [Compound 5]; not met
C=C[C@@H]1C[C@]1(NC(=O)[C@@H]1C[C@@]2(CN1C(=O)[C@@H](NC(=O)[C@@H](NC(=O)C(C)(C)N1CCCC1)C1CCCCC1)C(C)(C)C)C(C)(C)C21CCC1)C(=O)NS(=O)(=O)C1CC1 [Compound 89]; met
CC(C)N1CCCC[C@H]1C(=O)N[C@H](C(=O)N[C@H](C(=O)N1C[C@]2(CC1C(=O)NC1(C(=O)NS(=O)(=O)C3CC3)CC1(C)C)C(C)(C)C21CCC1)C(C)(C)C)C(C)(C)C (stereo partly drawn) [Compound 15]; not met
